Listing of recorded IC50 by entry.
Assay: cytotoxicity in HEK-293T cells, dose response, cytotoxicity control for BCR NF-kB inhibitor project, luminescence, B-cell screen hits (AID 489021);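 further: HEK-293T cells carrying an NF-kB luciferase reporter; cells exposed to compound for about 14 hours before viability readout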
Format: functional, cell-based
Calls of active or inactive are those of the source. How the calls were made is not given here.

// solved cases for IC50 follow
COc1ccc(-n2ncc3c(N4CCC(C(N)=O)CC4)ncnc32)cc1 = > 80 µM (inactive)
Cn1cnc([N+](=O)[O-])c1Sc1ccc([N+](=O)[O-])cc1 = > 80 µM (inactive)
CCOC(=O)N1CCN(c2[nH]cnc3c4cc(OC)ccc4nc2-3)CC1 = 56.9 µM (inactive)

**Q:** Find the measured IC50 of CCOC(=O)c1sc(NC(=O)c2cc(-c3ccccc3C)nc3ccccc23)c(C#N)c1C and report it.
**A:** 62.1 µM (inactive)
